Assign self-cleavage to each entry below.
B1: HDV Ribozyme (parent)
chain: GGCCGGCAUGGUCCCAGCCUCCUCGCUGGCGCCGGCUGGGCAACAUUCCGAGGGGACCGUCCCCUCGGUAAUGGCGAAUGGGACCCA

- Variants of: B1
- assayOverview: self-cleavage, relative activity (ratio to wild type); higher = more cleavage; co-transcriptional
Give bare numbers.

Below: 3 variants and their reported self-cleavage.
1. GACCGGCAUGGUCCCAGCCUCCUCGAUGGCGCCGGCUGGGCAACAUUCCGAGGGGACCGUCCCCUCGGUAAUGGCGAAUGGGACCCA; 0.216
2. GGCCGGCAUGGUCCCAGCCUACUCGCUGGCGCCGGCUGGGCAACAUUCCGAGGGGACCUUCCCCUCGGUAAUGGCGAAUGGGACCCA; 0.0545
3. GGCGGGCAUGGUCCCAGCCUCCUCGCUGGCGCCGGCUGGGCAAAAUUCCGAGGGGACCGUCCCCUCGGUAAUGGCGAAUGGGACCCA; 0.0346

Parameter requested: self-cleavage. Apply to each item below.
1. GGCCGGCAUGGUCCCAGCCUCCUCGCUGGCGCCGGCUGGGCAACCUUCCGAGGGGACCGUCCCCUCGGUAAUGGCGUAUGGGACCCA
2. GGCCGGCAUGGUCCCAGCCUCCUCGCUGGCGCCGGCUGGGCAUCAUUCCGAGGGGACCGUCCCCUCGGCAAUGGCGAAUGGGACCCA
3. GGCCGGCAUGGUUCCAGCCUCCUCGCUGGCGCCGGCUGGGCAACAUUCCGAGGGGACCGUCCCCUCGGUAAUGGCGAGUGGGACCCA
4. GGCCGGCAUGGUCCCAGCCUCGUCGCUGGCGCCGGCUGGGCAACAUUCCGAGGGGACCGUCCCCUCGGUAAUGGCGAAAGGGACCCA
5. GGCCCGCAUGGUCCCAGCCUCCUCGCUGGCGCGGGCUGGGCAACAUUCCGAGGGGACCGUCCCCUCGGUAAUGGCGAAUGGGACCCA
6. GGCCGGCAUGGUCCCAGCCUCCUCGCUGGCGCCGGCUGGGCAACAUUCCCAGGGGACCGUCCCCUCGGUAAUGGCGAAUGGCACCCA
7. GGCCGGCAUAGUCCCAGCCUCCUCGCUGGCGCCGGCUGGGCAACAUUCCGAGGGGACCGUCCCCUCGGUAAUGGGGAAUGGGACCCA

A:
1: 0.142; 2: 0.494; 3: 0.178; 4: 0.0615; 5: 1.43; 6: 0.383; 7: 0.086

Parameter requested: self-cleavage. Apply to each item below.
1. GGCCGGCAUGGUCCCAGCCUCCUCGCUGGCGCCGGCUGGGCAACAUACCGAGGGGACCGUCCCCUCGGUAAUGGCGAAUGGGAUCCA
2. GGCCGUCAUGGUCCCAGCCUCCUCGCUGGCGCCGGCUGGGCAACAUUCCGAGGGGACCGUCCCCUCGGUAAAGGCGAAUGGGACCCA
3. GGCCAGCAUGGUCCCAGCCUCCUCGCUGGCGCCGGCUGGGCAACAUUCCGAGGGAACCGUCCCCUCGGUAAUGGCGAAUGGGACCCA
4. GGCCGGCAUGGUCCCAGCCUACUCGCUGGCGCCGGCUGGGCAACAUUCCGAGGGGACCGUCCCCUCAGUAAUGGCGAAUGGGACCCA
5. GGCCGGCAUGGUCCCAGCCUCCUCGCUGGCGCCGGCUGGGCAACAUUCCGAGGGGUCGGUCCCCUCGGUAAUGGCGAAUGGGACCCA
6. GGCCGGCAUGGUCCCAGCCUCCUCGCUGGCGCCGGCUGGGCAACAUUCCGAGGCGGCCGUCCCCUCGGUAAUGGCGAAUGGGACCCA
7. GGCCGGCAUGGUCCAAGCCUCCUCGCUGGCGCCGGCUGGGCAACAUUCCGAGGGGACCGUCCCCUCGGUAAUGGCGAAUGGGAACCA
8. GGCCGGCAUGGUCCCAGCCUCCUCGCUGGCGCCUGCUGGGCAACAUUCCGAGGGGACCGUCCCCUCGAUAAUGGCGAAUGGGACCCA

A:
[0.735, 0.0665, 0.237, 0.0712, 1.08, 0.808, 0.539, 0.274]

Parameter requested: self-cleavage. Apply to each item below.
1. GGCCGGCAUGGUCCCAGCCUCCUCGCUGGCGCCGGGUGGGCAACAUUCCGAGGGGACCGUCCCCUCGGUAAUGGCGUAUGGGACCCA
2. GGCCGGCAUGGUCCCAGCCUCCUCGCUGGCGCCGGCUGGGCAACAUUCCGAGGGGACCGUCCCCUCGGUAAUAGCGAAUGGGACCCC
3. GGCCGGCAUGGUCCCAGCCUCCUCUCUGGCGCCGGCUGGGCAACAUUUCGAGGGGACCGUCCCCUCGGUAAUGGCGAAUGGGACCCA
4. GGCCGGCAUGGCCCCAGCCUCCUCGCUUGCGCCGGCUGGGCAACAUUCCGAGGGGACCGUCCCCUCGGUAAUGGCGAAUGGGACCCA
5. GGCCGGCAUGGUCCCAGCCUCCUCGCUGGCGCCGGCAGGGCCACAUUCCGAGGGGACCGUCCCCUCGGUAAUGGCGAAUGGGACCCA
6. GGCCGGCAUGGUCCCAGCCUCCUCGCUGGCGCCGGAUGGGCAACAUUGCGAGGGGACCGUCCCCUCGGUAAUGGCGAAUGGGACCCA

A:
1: 0.177; 2: 0.643; 3: 0.102; 4: 0.0378; 5: 0.246; 6: 0.203
